// data source = ChEMBL document CHEMBL1157815

# GI50 listing for each entry below
# Assay text: Antiproliferative activity against human MCF7/BUS cells expressing estrogen receptor after 48 hrs by SRB assay
# Type: functional
Quantity: GI50 (µM)

>>> quantitative_readout("O=c1[nH]cc(F)c(=O)[nH]1")
6.2
>>> quantitative_readout("CC1=C(C)[C@H]([C@H]2O[C@@]3(O)C[C@H]4[C@@H](C[C@H]5O[C@]56CC=CC(=O)[C@]46C)[C@@H]4CC[C@@](O)([C@@H]2C)[C@]43C)OC1=O [TRECHONOLIDE A]")
3.1
>>> quantitative_readout("CC1=C(C)C(=O)O[C@@H]([C@H]2CO[C@@]3(O)C[C@H]4[C@@H](C[C@H]5O[C@]56CC=CC(=O)[C@]46C)[C@@H]4CC[C@]2(O)[C@]43C)C1")
2.8
>>> quantitative_readout("CCO[C@@]12C[C@H]3[C@@H](C[C@@H](O)[C@@]4(Cl)CC=CC(=O)[C@]34C)[C@@H]3CC[C@@](O)([C@H](C)[C@@H]([C@@H]4O[C@H](O)[C@@]5(C)O[C@@]45C)O1)[C@]32C")
5.1
>>> quantitative_readout("C[C@@H](C1=CC(=O)[C@H]2[C@@H]3C[C@H]4O[C@]45CC=CC(=O)[C@]5(C)[C@H]3CC[C@]12C)C1C[C@]2(C)O[C@]2(C)[C@H](O)O1 (stereo not given in full) [SALPICHROLIDE D]")
13
